B1: CAMK2B (parent)
chain: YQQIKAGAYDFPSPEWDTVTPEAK

# Variants of: B1
# TEST_DESCRIPTION: protein stability index of a GFP-peptide fusion (GPS, HEK-293T) (PSI 1-6); higher = more stable;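 further: lentivirally expressed fusions sorted by FACS into six bins by GFP to DsRed ratio, PSI derived from sequencing read proportions per bin multiplied by bin number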
# STUDY_CONDITIONS: c terminus: a fixed tail appended
Would you mind labelling by protein stability index? At or over 3 is true, under is false.

1) YQQIKAGAYDFPSHEWDTVTPEAK [P14H] | true
2) YQQIKAGAYDFPSPERDTVTPEAK [W16R] | true
3) YQQIKAWAYDFPSPEWDTVTPEAK [G7W] | false

Query: Is it the case that YQQIKAGAYDFPSPEWDTVTGEAK [P21G] has protein stability index reaching or exceeding 3?
Reply: true

Query: Does the reported protein stability index for YQQIKAGAYDFPSPEWDTVTPEAV [K24V] fall at or above the 3 mark?
Reply: true

Query: Threshold query (protein stability index >= 3) on YQQIKAGAYDFPSPEWDTVTPEAE [K24E]
Reply: true

Query: Confirm if protein stability index reported for the variant YQQIKAAAYDFPSPEWDTVTPEAK [G7A] is 3 or above.
Reply: true

Query: Record YQQIKAGAYDFPSPEWDTVTPEDK [A23D] ; criterion: protein stability index no lower than 3. Met?
Reply: true

Query: Textbook exercise: given the entry YQQIKAGAYDFPSPEWDTGTPEAK [V19G] , state whether its protein stability index is greater than or equal to 3.
Reply: true

Query: Is protein stability index for YQQIKAGARDFPSPEWDTVTPEAK [Y9R] at or above 3?
Reply: true

Cited source for all entries: the supplement of paper PMC10567573
